target: cyclooxygenase-1 (COX-1 enzyme) (Homo sapiens); construct: from tissue; host or cells: human whole blood without heparin (platelets) from healthy volunteers; assay: Human whole blood in vitro activity assay, COX-1 (TXB2 by EIA); assay type: cell-based; conditions: read-out: IC50 (μg/mL) COX-1 (converted)
Sequence (P23219 24-599): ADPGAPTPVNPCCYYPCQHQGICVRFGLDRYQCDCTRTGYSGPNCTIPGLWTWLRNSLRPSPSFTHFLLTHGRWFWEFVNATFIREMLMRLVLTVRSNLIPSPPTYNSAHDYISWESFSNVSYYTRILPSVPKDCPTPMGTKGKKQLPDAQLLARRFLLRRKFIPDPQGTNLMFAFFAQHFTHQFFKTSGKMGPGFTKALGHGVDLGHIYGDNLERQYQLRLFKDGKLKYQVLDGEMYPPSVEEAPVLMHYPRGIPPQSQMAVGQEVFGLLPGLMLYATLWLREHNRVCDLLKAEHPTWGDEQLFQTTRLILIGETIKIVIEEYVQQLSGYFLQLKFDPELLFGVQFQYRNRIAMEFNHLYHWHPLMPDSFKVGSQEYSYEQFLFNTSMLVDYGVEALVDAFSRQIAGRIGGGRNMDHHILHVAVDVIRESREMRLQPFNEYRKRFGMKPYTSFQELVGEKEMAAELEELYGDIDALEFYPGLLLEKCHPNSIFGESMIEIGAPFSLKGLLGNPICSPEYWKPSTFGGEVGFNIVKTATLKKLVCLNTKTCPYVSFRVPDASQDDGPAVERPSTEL
Let's look at some molecules and their measured IC50.
I only need the number, in µM, no unit after it.

Consider the worked cases shown below.
{"molecule": "CS(=O)(=O)c1ccc(-n2cnc(Cl)c2-c2ccc(Cl)cc2Cl)nc1 [Compound 4]", "assayed target": "cyclooxygenase-1 (COX-1 enzyme) (Homo sapiens)", "unit abbreviation": "µM", "IC50": 45.6}
{"molecule": "CS(=O)(=O)c1ccc(-n2cncc2-c2ccccc2)cn1 [Compound 8E]", "assayed target": "cyclooxygenase-1 (COX-1 enzyme) (Homo sapiens)", "unit abbreviation": "µM", "IC50": 187}

Report measured IC50; entry is CS(=O)(=O)c1ccc(-n2cncc2-c2ccccc2)nc1 [Compound 1E]
86.5

Look up and report measured IC50 for this entry: COc1ccc(-c2c(Cl)ncn2-c2ccc(S(C)(=O)=O)nc2)cc1F [Compound 10]
185

Fill in reported IC50 for this entry: COc1ccc(-c2c(Cl)ncn2-c2ccc(S(C)(=O)=O)cn2)cc1 [Compound 5]
0.632

Using known records, supply IC50 for CS(=O)(=O)c1ccc(-n2cnc(Cl)c2-c2ccccc2)nc1 [Compound 1]
39.5

Output measured IC50 for this item: CS(=O)(=O)c1ccc(-n2cnc(Cl)c2-c2ccc(F)cc2)cn1 [Compound 12]
209

Give the measured IC50 for Cc1ccc(-c2c(Cl)ncn2-c2ccc(S(C)(=O)=O)cn2)cc1 [Compound 3]
19.7

// Input: CS(=O)(=O)c1ccc(-n2cnc(Cl)c2-c2cccnc2)nc1 [Compound 7] . Output its IC50 only.
54

Please report the measured IC50 for CS(=O)(=O)c1ccc(-n2cnc(Cl)c2-c2ccc(F)cc2)nc1 [Compound 2]
11.2

Identify measured IC50 corresponding to COc1ccc(-c2c(Cl)ncn2-c2ccc(S(C)(=O)=O)nc2)cc1 [Compound 9]
62.5

Please report the measured IC50 for COc1ccc(-c2c(Cl)ncn2-c2ccc(S(N)(=O)=O)cc2)cc1F [Cimicoxib, reference compound]
4.16

Identify measured IC50 associated with COc1ccc(-c2c(Cl)ncn2-c2ccc(S(C)(=O)=O)cn2)cc1F [Compound 6]
8.8
